- Test system: SK-BR-3
- method-summary: normalised response (% of control), CellTiter-Glo; higher = more viable cells (100 = DMSO, 0 = benzethonium chloride kill control)
- conditions-used: incubation time: 72 h
The following molecules are listed with their measured normalised response values.
experimental-endpoint: normalised response (%)

molecule="CNNCc1ccc(C(=O)NC(C)C)cc1 [Procarbazine] (1000 nM)" unit_string=% recorded_result=110
molecule="O=C1NC(=O)[C@@H](c2cn3c4c(cccc24)CCC3)[C@@H]1c1c[nH]c2ccccc12 [Tivantinib] (100 nM)" unit_string=% recorded_result=92
molecule="Nc1nc(OCc2cc(Br)cs2)c2[nH]cnc2n1 [Lomeguatrib] (10 nM)" unit_string=% recorded_result=105
molecule="CCCCCCCCc1ccc(CCC(N)(CO)CO)cc1 [Fingolimod] (10 nM)" unit_string=% recorded_result=105
molecule="Cc1ccc(NC(=O)c2ccc(CN3CCN(C)CC3)cc2)cc1Nc1nccc(-c2cccnc2)n1 [Imatinib] (10 nM)" unit_string=% recorded_result=109
molecule="c1ccc([C@H]2CN3CCSC3=N2)cc1 [Levamisole] (1 nM)" unit_string=% recorded_result=109
molecule="NS(=O)(=O)OC[C@@H]1C[C@@H](n2ccc3c(N[C@H]4CCc5ccccc54)ncnc32)C[C@@H]1O [Pevonedistat] (10 nM)" unit_string=% recorded_result=93.5
molecule="c1ccc([C@H]2CN3CCSC3=N2)cc1 [Levamisole] (10 nM)" unit_string=% recorded_result=95.1
molecule="O=C1NC(=O)[C@@H](c2cn3c4c(cccc24)CCC3)[C@@H]1c1c[nH]c2ccccc12 [Tivantinib] (1 nM)" unit_string=% recorded_result=113

====

- Test system: HCC1937
- method-summary: normalised viability (% of control), CellTiter-Blue; higher = more viable cells (about 100 = DMSO control)
- conditions-used: 1000 nM; incubation time: 72 h
The following compounds are listed with their measured normalised viability values.
experimental-endpoint: normalised viability (%)

compound="COc1ccc(-c2ccc3c(N4CCOC[C@@H]4C)nc(N4CCOC[C@@H]4C)nc3n2)cc1CO [AZD8055]" recorded_result=32.6
compound="CC[C@]1(O)C[C@H]2CN(CCc3c([nH]c4ccccc34)[C@@](C(=O)OC)(c3cc4c(cc3OC)N(C=O)[C@H]3[C@@](O)(C(=O)OC)[C@H](OC(C)=O)[C@]5(CC)C=CCN6CC[C@]43[C@@H]65)C2)C1 [Vincristine]" recorded_result=15.1
compound="CN(C)CCN1C(=O)c2cccc3cc(N)cc(c23)C1=O [Amonafide]" recorded_result=69.2
compound="CC(C)(C#N)c1cc(Cn2cncn2)cc(C(C)(C)C#N)c1 [Anastrozole]" recorded_result=95.4
compound="CN1CCN(CCOc2cc(OC3CCOCC3)c3c(Nc4c(Cl)ccc5c4OCO5)ncnc3c2)CC1 [Saracatinib]" recorded_result=85

====

- Test system: MDA-MB-436
- method-summary: normalised response (% of control), CellTox Green; higher = less cell death (100 = DMSO, 0 = benzethonium chloride kill control)
- conditions-used: incubation time: 72 h
experimental-endpoint: normalised response (%)

compound="C/C(=C\\c1csc(C)n1)[C@@H]1C[C@@H]2O[C@]2(C)CCC[C@H](C)[C@H](O)[C@@H](C)C(=O)C(C)(C)[C@@H](O)CC(=O)O1 [Patupilone] (10 nM)" test_target=MDA-MB-436 unit_string=% recorded_result=76.8
compound="CO[C@H]1C[C@@H]2CC[C@@H](C)[C@@](O)(O2)C(=O)C(=O)N2CCCC[C@H]2C(=O)O[C@H]([C@H](C)C[C@@H]2CC[C@@H](OCCO)[C@H](OC)C2)CC(=O)[C@H](C)/C=C(\\C)[C@@H](O)[C@@H](OC)C(=O)[C@H](C)C[C@H](C)/C=C/C=C/C=C/1C [Everolimus] (1 nM)" test_target=MDA-MB-436 unit_string=% recorded_result=98.3
compound="C[C@]12CC[C@H](O)CC1=CC[C@@H]1[C@@H]2CC[C@]2(C)C(c3cccnc3)=CC[C@@H]12 [Abiraterone] (5000 nM)" test_target=MDA-MB-436 unit_string=% recorded_result=111
compound="Cn1cncc1[C@@](N)(c1ccc(Cl)cc1)c1ccc2c(c1)c(-c1cccc(Cl)c1)cc(=O)n2C [Tipifarnib] (10000 nM)" test_target=MDA-MB-436 unit_string=% recorded_result=81.1
compound="C[C@]12CC[C@H](O)CC1=CC[C@@H]1[C@@H]2CC[C@]2(C)C(c3cccnc3)=CC[C@@H]12 [Abiraterone] (50 nM)" test_target=MDA-MB-436 unit_string=% recorded_result=96.5

====

- System: HCC1599
- method-summary: normalised response (% of control), CellTiter-Glo; higher = more viable cells (100 = DMSO, 0 = benzethonium chloride kill control)
- conditions-used: incubation time: 72 h
experimental-endpoint: normalised response (%)

compound="COc1ccc(-c2ccc3c(N4CCOC[C@@H]4C)nc(N4CCOC[C@@H]4C)nc3n2)cc1CO [AZD8055] (10000 nM)" test_target=HCC1599 experimental_endpoint="normalised response" recorded_result=77.3
compound="C[C@]12CC[C@H](O)CC1=CC[C@@H]1[C@@H]2CC[C@]2(C)C(c3cccnc3)=CC[C@@H]12 [Abiraterone] (5000 nM)" test_target=HCC1599 experimental_endpoint="normalised response" recorded_result=107
compound="CC(C)(C#N)c1cc(Cn2cncn2)cc(C(C)(C)C#N)c1 [Anastrozole] (10000 nM)" test_target=HCC1599 experimental_endpoint="normalised response" recorded_result=99.8
compound="CCCCCCCCc1ccc(CCC(N)(CO)CO)cc1 [Fingolimod] (10000 nM)" test_target=HCC1599 experimental_endpoint="normalised response" recorded_result=61.6
compound="O=C(O)CCCc1ccc(N(CCCl)CCCl)cc1 [Chlorambucil] (10000 nM)" test_target=HCC1599 experimental_endpoint="normalised response" recorded_result=89.3
compound="CC[C@]1(O)C[C@H]2CN(CCc3c([nH]c4ccccc34)[C@@](C(=O)OC)(c3cc4c(cc3OC)N(C=O)[C@H]3[C@@](O)(C(=O)OC)[C@H](OC(C)=O)[C@]5(CC)C=CCN6CC[C@]43[C@@H]65)C2)C1 [Vincristine] (1000 nM)" test_target=HCC1599 experimental_endpoint="normalised response" recorded_result=12.2
compound="c1ccc([C@H]2CN3CCSC3=N2)cc1 [Levamisole] (10000 nM)" test_target=HCC1599 experimental_endpoint="normalised response" recorded_result=114

====

- System: HCC1937
- method-summary: normalised response (% of control), CellTiter-Glo; higher = more viable cells (100 = DMSO, 0 = benzethonium chloride kill control)
- conditions-used: incubation time: 72 h
experimental-endpoint: normalised response (%)

compound="CN(C)CCN1C(=O)c2cccc3cc(N)cc(c23)C1=O [Amonafide] (1000 nM)" experimental_endpoint="normalised response" recorded_result=89.9
compound="CCCCCCCCc1ccc(CCC(N)(CO)CO)cc1 [Fingolimod] (1000 nM)" experimental_endpoint="normalised response" recorded_result=103
compound="NS(=O)(=O)OC[C@@H]1C[C@@H](n2ccc3c(N[C@H]4CCc5ccccc54)ncnc32)C[C@@H]1O [Pevonedistat] (10 nM)" experimental_endpoint="normalised response" recorded_result=99.1
compound="C/C(=C\\c1csc(C)n1)[C@@H]1C[C@@H]2O[C@]2(C)CCC[C@H](C)[C@H](O)[C@@H](C)C(=O)C(C)(C)[C@@H](O)CC(=O)O1 [Patupilone] (1 nM)" experimental_endpoint="normalised response" recorded_result=103
compound="COc1ccc(-c2ccc3c(N4CCOC[C@@H]4C)nc(N4CCOC[C@@H]4C)nc3n2)cc1CO [AZD8055] (1000 nM)" experimental_endpoint="normalised response" recorded_result=45.7
compound="C[C@]12CC[C@H](O)CC1=CC[C@@H]1[C@@H]2CC[C@]2(C)C(c3cccnc3)=CC[C@@H]12 [Abiraterone] (5 nM)" experimental_endpoint="normalised response" recorded_result=94.6
compound="Cn1c(=O)n(-c2ccc(C(C)(C)C#N)cc2)c2c3cc(-c4cnc5ccccc5c4)ccc3ncc21 [Dactolisib] (100 nM)" experimental_endpoint="normalised response" recorded_result=57.3

====

The following compounds are listed with their measured normalised viability values.
- System: MDA-MB-231
- method-summary: normalised viability (% of control), CellTiter-Blue; higher = more viable cells (about 100 = DMSO control)
- conditions-used: 10000 nM; incubation time: 72 h
experimental-endpoint: normalised viability (%)

given_smiles=Cn1cncc1[C@@](N)(c1ccc(Cl)cc1)c1ccc2c(c1)c(-c1cccc(Cl)c1)cc(=O)n2C test_target=MDA-MB-231 recorded_result=48.8
given_smiles=CC(C)(C#N)c1cc(Cn2cncn2)cc(C(C)(C)C#N)c1 test_target=MDA-MB-231 recorded_result=106
given_smiles=COc1ccc(-c2ccc3c(N4CCOC[C@@H]4C)nc(N4CCOC[C@@H]4C)nc3n2)cc1CO test_target=MDA-MB-231 recorded_result=22.7
given_smiles=CNNCc1ccc(C(=O)NC(C)C)cc1 test_target=MDA-MB-231 recorded_result=109
given_smiles=CC[C@]1(O)C[C@H]2CN(CCc3c([nH]c4ccccc34)[C@@](C(=O)OC)(c3cc4c(cc3OC)N(C=O)[C@H]3[C@@](O)(C(=O)OC)[C@H](OC(C)=O)[C@]5(CC)C=CCN6CC[C@]43[C@@H]65)C2)C1 test_target=MDA-MB-231 recorded_result=14.5
